molecular target: MAPK14 (human); assay: In vitro Inhibition of TNF-alpha Production in PBMC Cells
reported property: IC50 (nM)

Some solved entries appear below for comparison.
>>> value_observed("C=CC#Cc1c(-c2ccc(F)cc2)c(-c2ccncc2)c(C(=O)OC)n1C")
34
>>> value_observed("COC(=O)C1CCn2cc(-c3ccncc3)c(-c3ccc(F)cc3)c2C1=O (stereo not given)")
326
>>> value_observed("CCOC(=O)c1c(-c2ccc(Br)cc2)c(-c2ccncc2)cn1C")
211
>>> value_observed("COC(=O)c1c(-c2cccc(F)c2)c(-c2ccncc2)cn1C")
64

(a) CCOC(=O)c1c(-c2cc(F)cc(F)c2)c(-c2ccncc2)c(Br)n1C
(b) CCCc1c(-c2ccnc(N[C@@H](C)COC)n2)c(-c2ccc(F)cc2)cn1C(=O)OC(C)(C)C
(c) COC(=O)c1c(-c2ccc(F)cc2)c(-c2ccncc2)c(Nc2ccc3c(c2)N(C(C)=O)CC3)n1C
(d) COC(=O)c1c(-c2ccc(F)cc2)c(-c2ccncc2)cn1C(=O)OC
(e) CCOC(=O)c1[nH]cc(-c2ccncc2)c1-c1ccccc1
// query Put these in order: smallest IC50 first, largest last. List the labels according to the requested ordering.
// result d, b, e, c, a

----------
tested on: MAPK14 (BALB/cJ mice); assay: In vivo Inhibition of LPS-induced TNF-alpha Production; conditions: dose or concentration not given here
Recorded inhibition values for a group of molecules are listed next.
Number only, in %; omit the unit.

Some solved entries appear below for comparison.
>>> value_observed("Fc1ccc(-c2c[nH]c(CN3CCc4ccccc4C3)c2-c2ccncc2)cc1")
63
>>> value_observed("COC(=O)C1CCn2cc(-c3ccncc3)c(-c3ccc(F)cc3)c2C1=O (stereo not given)")
-9
>>> value_observed("COC(=O)c1c(-c2ccc(F)cc2)c(-c2ccncc2)c(-c2cccc(NC(C)=O)c2)n1C")
59

// query Which inhibition value is on record for `CC(=O)N1CCN(c2c(-c3ccncc3)c(-c3ccc(F)cc3)c(-c3nnco3)n2C)CC1` ?
// result 19

// query Which inhibition value is on record for `COC(=O)c1c(-c2ccncc2)c(-c2ccc(F)cc2)c(Br)n1C` ?
// result -6

// query Which inhibition value is on record for `COC(=O)c1c(-c2ccc(F)cc2)c(-c2ccncc2)c(NCc2cccc(OC)c2)n1C` ?
// result 63

// query Which inhibition value is on record for `COC(=O)C(=O)c1c(-c2ccc(F)cc2)c(-c2ccncc2)c(N2CCNCC2)n1C` ?
// result 52

// query Which inhibition value is on record for `COC(=O)c1c(-c2ccc(F)cc2)c(-c2ccncc2)c(N2CCN(c3cccc(C(C)=O)c3)CC2)n1C` ?
// result -21

// query Which inhibition value is on record for `CCNC(=O)c1[nH]cc(-c2ccc(F)cc2)c1-c1ccncc1` ?
// result -24

// query Which inhibition value is on record for `CCOC(=O)c1c(-c2ccc(F)cc2)c(-c2ccncc2)c(N2CCNCC2)n1C` ?
// result 79

// query Which inhibition value is on record for `COC(=O)c1c(-c2ccc(F)cc2)c(-c2ccncc2)c(N2CCc3ccccc3C2)n1C` ?
// result 32

// query Which inhibition value is on record for `CCCc1c(-c2ccnc(N[C@@H](C)c3ccccc3)n2)c(-c2ccc(F)cc2)cn1C(=O)OC(C)(C)C` ?
// result -79

// query Which inhibition value is on record for `COC(=O)c1c(-c2ccc(F)cc2)c(-c2ccncc2)cn1C(=O)OC` ?
// result -22

// query Which inhibition value is on record for `C=CC#Cc1c(-c2ccc(F)cc2)c(-c2ccncc2)c(C(=O)OC)n1C` ?
// result -20

// query Which inhibition value is on record for `Cn1cc(-c2ccncc2)c(-c2ccc(F)cc2)c1CNC(=O)Nc1ccccc1` ?
// result 82

// query Which inhibition value is on record for `CCOC(=O)c1c(-c2cccc(C(F)(F)F)c2)c(-c2ccncc2)c(N2CCNCC2)n1C` ?
// result 83

// query Which inhibition value is on record for `CN(C)CCn1cc(-c2ccncc2)c(-c2ccc(F)cc2)c1CO` ?
// result 20

// query Which inhibition value is on record for `CN(C)C(=O)c1c(-c2ccc(F)cc2)c(-c2ccncc2)c(Br)n1C` ?
// result -41

// query Which inhibition value is on record for `CNC(=O)c1c(-c2ccc(F)cc2)c(-c2ccncc2)c(Br)n1C` ?
// result 53

// query Which inhibition value is on record for `CC(=O)N1CCN(c2c(-c3ccncc3)c(-c3ccc(F)cc3)c(C#N)n2C)CC1` ?
// result 81

// query Which inhibition value is on record for `CN(C)C(=O)c1c(-c2ccc(F)cc2)c(-c2ccncc2)cn1C` ?
// result 33

----------
Recorded inhibition values for a group of compounds are listed next.
test system: MAPK14 (BALB/cJ mice); assay: In vivo Inhibition of LPS-induced TNF-alpha Production; details: dose or concentration not given here
Number only, in %; omit the unit.

Some solved entries appear below for comparison.
>>> value_observed("COC(=O)c1c(-c2ccc(F)cc2)c(-c2ccncc2)c(NCCN(C)C)n1C")
-43
>>> value_observed("CCOC(=O)c1[nH]cc(-c2ccncc2)c1-c1ccccc1")
58
>>> value_observed("COC(=O)c1c(-c2ccncc2)c(-c2ccc(F)cc2)c(NCCc2ccccc2)n1C")
58
>>> value_observed("COC(=O)c1c(-c2ccc(F)cc2)c(-c2ccncc2)c(N2CCN(C)CC2)n1C")
89
>>> value_observed("COC(=O)c1c(-c2ccc(F)cc2)c(-c2ccncc2)c(N2CCN(S(C)(=O)=O)CC2)n1C")
-29

// query Report inhibition for `CON(C)C(=O)c1c(-c2ccc(F)cc2)c(-c2ccncc2)c(N2CCN(C(=O)OC(C)(C)C)CC2)n1C` tested on MAPK14 (BALB/cJ mice).
// result 45

// query Report inhibition for `Fc1ccc(-c2c[nH]c(CN3CCNCC3)c2-c2ccncc2)cc1` tested on MAPK14 (BALB/cJ mice).
// result -41

----------
target: MAPK14 (human) (UniProt Q16539); test: In vitro Inhibition of TNF-alpha Production in PBMC Cells
Sequence (Q16539 whole entry, looked up): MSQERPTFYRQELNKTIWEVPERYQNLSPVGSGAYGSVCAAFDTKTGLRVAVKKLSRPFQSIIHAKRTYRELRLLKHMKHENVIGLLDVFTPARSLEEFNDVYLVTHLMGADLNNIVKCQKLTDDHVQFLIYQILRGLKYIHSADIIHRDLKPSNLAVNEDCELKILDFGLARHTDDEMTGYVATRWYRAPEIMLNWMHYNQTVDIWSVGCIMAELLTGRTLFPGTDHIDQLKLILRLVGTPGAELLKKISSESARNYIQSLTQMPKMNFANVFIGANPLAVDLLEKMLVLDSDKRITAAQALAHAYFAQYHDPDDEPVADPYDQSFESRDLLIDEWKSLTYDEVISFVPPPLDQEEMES
reported property: IC50 (nM)

Some solved entries appear below for comparison.
>>> value_observed("Fc1ccc(-c2c[nH]c(CN3CCNCC3)c2-c2ccncc2)cc1")
63
>>> value_observed("Fc1ccc(-c2c[nH]c(CNCc3ccccc3)c2-c2ccncc2)cc1")
6
>>> value_observed("Cn1c(C#N)c(-c2ccc(F)cc2)c(-c2ccncc2)c1NCCN1CCOCC1")
351
>>> value_observed("COC(=O)c1c(-c2ccc(F)cc2)c(-c2ccncc2)c(NC2CCN(Cc3ccccc3)CC2)n1C")
1310
>>> value_observed("COC(=O)c1c(-c2ccc(F)cc2)c(-c2ccncc2)c(NCCN2CCOCC2)n1C")
50

(A) CCOC(=O)c1c(-c2ccc(F)cc2)c(-c2ccncc2)cn1C
(B) CCOC(=O)c1c(-c2cc(F)cc(F)c2)c(-c2ccncc2)cn1C
// query Which shows the larger IC50 value: A or B ? # reply format: chosen label
// result A
(A: 125 nM, B: 33 nM)

(1) CCN1CCCC1CNc1c(-c2ccncc2)c(-c2ccc(F)cc2)c(C(=O)OC)n1C (stereo not given)
(2) CCOC(=O)N1CCN(c2c(-c3ccncc3)c(-c3ccc(F)cc3)c(C(=O)OC)n2C)CC1
(3) CON(C)C(=O)c1c(-c2ccc(F)cc2)c(-c2ccncc2)c(N2CCN(C(=O)OC(C)(C)C)CC2)n1C
(4) CCCc1c(-c2ccnc(N[C@@H](C)c3ccccc3)n2)c(-c2ccc(F)cc2)cn1CCN1CCOCC1
(5) OCc1c(-c2ccc(F)cc2)c(-c2ccncc2)cn1CCN1CCOCC1
// query Put these in order: smallest IC50 first, largest last. List the labels according to the requested ordering.
// result 4, 2, 3, 5, 1

(A) COC(=O)c1c(-c2ccc(F)cc2)c(-c2ccncc2)c(N2CCN(S(C)(=O)=O)CC2)n1C
(B) COC(=O)c1c(-c2ccncc2)c(-c2ccc(F)cc2)c(NCCN2CCOCC2)n1C
// query Which shows the larger IC50 value: A or B ? # reply format: chosen label
// result B

(A) COC(=O)c1c(-c2ccc(F)cc2)c(-c2ccncc2)c(N2CCC(N)C2)n1C (stereo not given)
(B) CCn1cc(-c2ccncc2)c(-c2ccc(F)cc2)c1CO
(C) COC(=O)c1c(-c2ccc(F)cc2)c(-c2ccncc2)c(N2CCN(CC3CCCCC3)CC2)n1C
// query Order these by IC50, descending, and give the full ranking. List the labels according to the requested ordering.
// result C, A, B

----------
Recorded inhibition values for a group of compounds are listed next.
test system: MAPK14 (BALB/cJ mice); assay: In vivo Inhibition of LPS-induced TNF-alpha Production; conditions: dose or concentration not given here
Number only, in %; omit the unit.

Some solved entries appear below for comparison.
>>> value_observed("COC(=O)c1c(-c2ccc(F)cc2)c(-c2ccncc2)c(N=C(c2ccccc2)c2ccccc2)n1C")
-49
>>> value_observed("O=C1CCn2c(Br)c(-c3ccncc3)c(-c3ccc(F)cc3)c21")
31
>>> value_observed("COC(=O)c1c(-c2ccc(F)cc2)c(-c2ccncc2)c(N)n1C")
53.9
>>> value_observed("CC(=O)c1c(-c2ccc(F)cc2)c(-c2ccncc2)c(N2CCNCC2)n1C")
39
>>> value_observed("CCOC(=O)c1c(-c2ccc(F)cc2)c(-c2ccncc2)c(CCCN2CCOCC2)n1C")
34
>>> value_observed("COC(=O)c1c(-c2ccc(F)cc2)c(-c2ccncc2)c(N2CCC(N)C2)n1C (stereo not given)")
25
>>> value_observed("O=C1c2c(-c3ccncc3)c(-c3ccc(F)cc3)cn2C(=O)N1Cc1ccccc1")
51
>>> value_observed("COC(=O)c1c(-c2ccncc2)c(-c2ccc(F)cc2)c(C#CCCO)n1C")
30

// query Which inhibition value is on record for `COC(=O)c1c(-c2ccc(F)cc2)c(-c2ccncc2)c(-c2ccc(N(C)C)cc2)n1C` ?
// result -22

// query Which inhibition value is on record for `Cn1c(Br)c(-c2ccncc2)c(-c2ccc(F)cc2)c1C(=O)OC(C)(C)C` ?
// result -7
